- procedure text: Plasma concentration in mouse at 75 mg/kg measured after 0.5 hrs
- Type: ADME, organism-based
outcome measure: concentration at 0.5 h (ng/mL)

1: Cc1n[nH]c2nc(Nc3cccc(C(=O)N4CCCC4)c3)nc(N[C@H]3[C@@H](C(N)=O)[C@@H]4C=C[C@H]3C4)c12
2: NC(=O)[C@@H]1[C@H](Nc2nc(Nc3cccc(C(=O)N4CCCC4)c3)nc3ccn(C(F)F)c23)[C@H]2C=C[C@@H]1C2
Query block: # argmax over concentration at 0.5 h for candidates 1 and 2 Please reply using the label of the selected record.
Result block: 2
(2: 410 ng/mL, 1: 65 ng/mL)

----------
A set of compounds tested on Interleukin-1 receptor-associated kinase 4 (Homo sapiens, UniProt Q9NWZ3), with measured pIC50:
pIC50: −log10 of the molar value.
outcome measure: pIC50

Record excerpt, results attached:
[
  {
    "compound": "NC(=O)[C@@H]1[C@H](Nc2nc(Nc3ccnc(N4CCCC4)c3)nc3ccsc23)[C@H]2C=C[C@@H]1C2",
    "outcome measure": "pIC50",
    "obs value": 6.69
  },
  {
    "compound": "O=C(c1cccc(Nc2nc(NC3C[C@@H]4CC[C@H]3C4)c3sccc3n2)c1)N1CCC(F)C1 (stereo partly drawn)",
    "outcome measure": "pIC50",
    "obs value": 7.01
  },
  {
    "compound": "NC(=O)[C@@H]1[C@H](Nc2nc(Nc3cccc(C(=O)N4CCCC4)c3)nc3[nH]ccc23)[C@H]2C=C[C@@H]1C2",
    "outcome measure": "pIC50",
    "obs value": 7.96
  }
]

P: NC(=O)[C@@H]1[C@H](Nc2nc(Nc3cc(F)cc(C(=O)N4CCCC4)c3)nc3ccsc23)[C@H]2C=C[C@@H]1C2
Q: NC(=O)[C@@H]1[C@H](Nc2nc(Nc3cc(F)cc(N4CCOCC4)c3)nc3ccsc23)[C@H]2C=C[C@@H]1C2
Query block: Choose between P and Q : whose measured pIC50 value is numerically larger? Your answer should be the label of the entry you select.
Result block: P

----------
- procedure text: Oral bioavailability in rat at 5 mg/kg
- Assay type: ADME, organism-based
- condition summary: in vivo
outcome measure: bioavailability (%)

a: CN1CCN(c2cc(F)cc(Nc3nc(N[C@H]4[C@@H](C(N)=O)[C@@H]5C=C[C@H]4C5)c4sccc4n3)c2)CC1
b: NC(=O)[C@@H]1[C@H](Nc2nc(Nc3ccc(F)c(N4CCOCC4)c3)nc3ccsc23)[C@H]2C=C[C@@H]1C2
c: NC(=O)[C@@H]1[C@H](Nc2nc(Nc3cccc(C(=O)N4CCCC4)c3)nc3ccn(C(F)F)c23)[C@H]2C=C[C@@H]1C2
d: NC(=O)[C@@H]1[C@H](Nc2nc(Nc3cc(F)cc(N4CCOCC4)c3)nc3ccn(C(F)F)c23)[C@H]2C=C[C@@H]1C2
Query block: Sort the items above by bioavailability, starting with the smallest value. Put the labels in the requested order and write them down.
Result block: c, a, b, d
(c: 8%, a: 16%, b: 23%, d: 37%)

----------
- procedure text: Clearance in rat at 1 mg/kg, iv
- Assay type: ADME, organism-based
- condition summary: in vivo
outcome measure: clearance (mL/min/kg)

Solved entries:
[
  {
    "compound": "CN1CCN(c2cc(F)cc(Nc3nc(N[C@H]4[C@@H](C(N)=O)[C@@H]5C=C[C@H]4C5)c4sccc4n3)c2)CC1",
    "outcome measure": "clearance",
    "unit annotation": "mL/min/kg",
    "obs value": 99
  },
  {
    "compound": "CN1CCN(c2cc(Nc3nc(N[C@H]4[C@@H](C(N)=O)[C@@H]5C=C[C@H]4C5)c4sccc4n3)ccn2)CC1",
    "outcome measure": "clearance",
    "unit annotation": "mL/min/kg",
    "obs value": 242
  },
  {
    "compound": "NC(=O)[C@@H]1[C@H](Nc2nc(Nc3cc(F)cc(N4CCOCC4)c3)nc3ccsc23)[C@H]2C=C[C@@H]1C2",
    "outcome measure": "clearance",
    "unit annotation": "mL/min/kg",
    "obs value": 40
  },
  {
    "compound": "Cc1n[nH]c2nc(Nc3cc(F)cc(N4CCOCC4)c3)nc(N[C@H]3[C@@H](C(N)=O)[C@@H]4C=C[C@H]3C4)c12",
    "outcome measure": "clearance",
    "unit annotation": "mL/min/kg",
    "obs value": 47
  },
  {
    "compound": "NC(=O)[C@@H]1[C@H](Nc2nc(Nc3ccc(F)c(C(=O)N4CCCC4)c3)nc3ccsc23)[C@H]2C=C[C@@H]1C2",
    "outcome measure": "clearance",
    "unit annotation": "mL/min/kg",
    "obs value": 92
  }
]

1: Cc1n[nH]c2nc(Nc3cccc(C(=O)N4CCCC4)c3)nc(N[C@H]3[C@@H](C(N)=O)[C@@H]4C=C[C@H]3C4)c12
2: NC(=O)[C@@H]1[C@H](Nc2nc(Nc3cccc(C(=O)N4CCCC4)c3)nc3ccsc23)[C@H]2C=C[C@@H]1C2
3: CC(C)n1ncc2ccc(Nc3nc(N[C@H]4[C@@H](C(N)=O)[C@@H]5C=C[C@H]4C5)c4c(ccn4C(F)F)n3)cc21
4: NC(=O)[C@@H]1[C@H](Nc2nc(Nc3cccc(C(=O)N4CCCC4)c3)nc3[nH]cnc23)[C@H]2C=C[C@@H]1C2
5: NC(=O)[C@@H]1[C@H](Nc2nc(Nc3cc(F)cc(N4CCOCC4)c3)nc3ccn(C(F)F)c23)[C@H]2C=C[C@@H]1C2
Query block: Write the entries in order, lowest recorded clearance first. Give me the labels in the order the question wants.
Result block: 3, 5, 1, 2, 4

----------
- measured on: Interleukin-1 receptor-associated kinase 4 (Homo sapiens, UniProt Q9NWZ3)
- Sequence (Q9NWZ3 whole entry): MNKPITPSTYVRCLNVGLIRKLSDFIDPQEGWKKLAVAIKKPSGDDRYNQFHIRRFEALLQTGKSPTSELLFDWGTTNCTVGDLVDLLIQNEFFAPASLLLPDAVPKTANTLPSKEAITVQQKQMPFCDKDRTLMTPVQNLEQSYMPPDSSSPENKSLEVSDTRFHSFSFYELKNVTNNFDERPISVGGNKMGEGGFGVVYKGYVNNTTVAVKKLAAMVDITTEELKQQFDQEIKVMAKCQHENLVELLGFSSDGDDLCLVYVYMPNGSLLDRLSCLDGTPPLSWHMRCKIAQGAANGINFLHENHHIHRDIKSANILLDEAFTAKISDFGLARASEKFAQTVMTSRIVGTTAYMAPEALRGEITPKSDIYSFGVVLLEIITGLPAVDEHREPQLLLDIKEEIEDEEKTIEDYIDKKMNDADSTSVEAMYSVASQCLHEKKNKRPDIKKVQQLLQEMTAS
outcome measure: IC50 (nM)

P: NC(=O)[C@@H]1[C@H](Nc2nc(Nc3ccc(C(=O)N4CCOCC4)cc3)nc3ccsc23)[C@H]2C=C[C@@H]1C2
Q: Cc1n[nH]c2nc(Nc3cc(F)cc(N4CCOCC4)c3)nc(N[C@H]3[C@@H](C(N)=O)[C@@H]4C=C[C@H]3C4)c12
R: NC(=O)[C@@H]1[C@H](Nc2nc(Nc3ccc(OCCN4CCCC4)cc3)nc3ccsc23)[C@H]2C=C[C@@H]1C2
Query block: With regard to IC50, arrange the entries in ascending order, please. A complete answer lists every label in the requested sequence.
Result block: Q, P, R

A: CN1CCN(c2cc(F)cc(Nc3nc(N[C@H]4[C@@H](C(N)=O)[C@@H]5C=C[C@H]4C5)c4sccc4n3)c2)CC1
B: NC(=O)[C@@H]1[C@H](Nc2nc(Nc3cc(F)cc(N4CCOCC4)c3)nc3ncsc23)[C@H]2C=C[C@@H]1C2
Query block: Lower IC50: A or B ? Could you answer with the label of the item you picked?
Result block: A

a: NC(=O)[C@@H]1[C@H](Nc2nc(Nc3ccnc(N4CCOCC4)c3)nc3ccsc23)[C@H]2C=C[C@@H]1C2
b: NC(=O)[C@H]1CCC[C@H]1Nc1nc(Nc2cccc(C(=O)N3CCCC3)c2)nc2ccsc12
c: Cn1ccc2nc(Nc3cccc(C(=O)N4CCCC4)c3)nc(N[C@H]3[C@@H](C(N)=O)[C@@H]4C=C[C@H]3C4)c21
Query block: Hey, quick one: sort these by IC50, largest value first please. List the labels according to the requested ordering.
Result block: b, a, c
(b: 17 nM, a: 10 nM, c: 4 nM)

----------
- procedure text: Clearance in rat at 1 mg/kg, iv
- Assay type: ADME, organism-based
- condition summary: in vivo
outcome measure: clearance (mL/min/kg)

# example entries with known answers
[
  {
    "compound": "NC(=O)[C@@H]1[C@H](Nc2nc(Nc3cc(F)cc(C(=O)N4CCCC4)c3)nc3ccsc23)[C@H]2C=C[C@@H]1C2",
    "clearance / mL/min/kg": 141
  },
  {
    "compound": "NC(=O)[C@@H]1[C@H](Nc2nc(Nc3cc(F)cc(N4CCOCC4)c3)nc3ccoc23)[C@H]2C=C[C@@H]1C2",
    "clearance / mL/min/kg": 53
  },
  {
    "compound": "Cn1ccc2nc(Nc3cccc(C(=O)N4CCCC4)c3)nc(N[C@H]3[C@@H](C(N)=O)[C@@H]4C=C[C@H]3C4)c21",
    "clearance / mL/min/kg": 58
  },
  {
    "compound": "NC(=O)c1ccccc1Nc1nc(Nc2cccc(C(=O)N3CCCC3)c2)nc2ccsc12",
    "clearance / mL/min/kg": 56
  }
]

a: NC(=O)[C@@H]1[C@H](Nc2nc(Nc3cccc(C(=O)N4CCCC4)c3)nc3ncsc23)[C@H]2C=C[C@@H]1C2
b: NC(=O)[C@@H]1[C@H](Nc2nc(Nc3ccc(F)c(N4CCOCC4)c3)nc3ccsc23)[C@H]2C=C[C@@H]1C2
Query block: Lower clearance: a or b ? Your answer should be the label attached to the chosen record.
Result block: b

1: NC(=O)[C@@H]1[C@H](Nc2nc(Nc3cccc(C(=O)N4CCC(F)C4)c3)nc3ccsc23)[C@H]2C=C[C@@H]1C2 (stereo partly specified)
2: NC(=O)[C@@H]1[C@H](Nc2nc(Nc3ccnc(N4CCOCC4)c3)nc3ccsc23)[C@H]2C=C[C@@H]1C2
Query block: From the recorded data, which exceeds the other in clearance: 1 or 2 ? Output the label that corresponds to your choice.
Result block: 2
